Values compiled from ChEMBL document CHEMBL1152901.

- Assay target: Monoglyceride lipase (Rattus norvegicus)
- Sequence (whole entry): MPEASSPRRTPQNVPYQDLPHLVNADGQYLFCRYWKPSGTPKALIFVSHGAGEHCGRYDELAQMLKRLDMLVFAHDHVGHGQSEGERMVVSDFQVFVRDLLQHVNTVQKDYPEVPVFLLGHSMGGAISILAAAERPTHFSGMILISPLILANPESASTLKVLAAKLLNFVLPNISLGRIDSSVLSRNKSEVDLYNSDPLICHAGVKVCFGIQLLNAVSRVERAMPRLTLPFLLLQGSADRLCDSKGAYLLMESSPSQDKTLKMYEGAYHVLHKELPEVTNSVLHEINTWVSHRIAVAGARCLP
- Measurement description: Inhibition of MGL in Wistar rat cerebral membrane at 100 uM by HPLC
- Format: cell membranes
Active and inactive are the calls of the source. The rule behind the calls is not given here.
Quantity name: inhibition

Below, each entry is followed by its recorded inhibition result.
Smi: CC(C)(C)NC(=O)Oc1ccc(C2=NCCS2)cc1
inhibition: inactive

Smi: CCCCCCNC(=O)Oc1ccccc1
inhibition: 41%

Smi: O=C(Nc1ccc([N+](=O)[O-])cc1)OC1CCCCC1
inhibition: inactive

Smi: CCCCNC(=O)Oc1ccc(-c2csnn2)cc1
inhibition: 46%

Smi: CCCCCCNC(=O)Nc1ccc(-c2csnn2)cc1
inhibition: inactive

Problem: Name the recorded inhibition for CCCCCCCCCCCCNC(=O)Oc1ccccc1 .
Result: 36%

Problem: Name the recorded inhibition for O=C(NC1CCCCC1)Oc1ccc(-c2csnn2)cc1 .
Result: 28%

* * *

- Assay target: Fatty-acid amide hydrolase 1 (Rattus norvegicus)
- Sequence (P97612 whole entry): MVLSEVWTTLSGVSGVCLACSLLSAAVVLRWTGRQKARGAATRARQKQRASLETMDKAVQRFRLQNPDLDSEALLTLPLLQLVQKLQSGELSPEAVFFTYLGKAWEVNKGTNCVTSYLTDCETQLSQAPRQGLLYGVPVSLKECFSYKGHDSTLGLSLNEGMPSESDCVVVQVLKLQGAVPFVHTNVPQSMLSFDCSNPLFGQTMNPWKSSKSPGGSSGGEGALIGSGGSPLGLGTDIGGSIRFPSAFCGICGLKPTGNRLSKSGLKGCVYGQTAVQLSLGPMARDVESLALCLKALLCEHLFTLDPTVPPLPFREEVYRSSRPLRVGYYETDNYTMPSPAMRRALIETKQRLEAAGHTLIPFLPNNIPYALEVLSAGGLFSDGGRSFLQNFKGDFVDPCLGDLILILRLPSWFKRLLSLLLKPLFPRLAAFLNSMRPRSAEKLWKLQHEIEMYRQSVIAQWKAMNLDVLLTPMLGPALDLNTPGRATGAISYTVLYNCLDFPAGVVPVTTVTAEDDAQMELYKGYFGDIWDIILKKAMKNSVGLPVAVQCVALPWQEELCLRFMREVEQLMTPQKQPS
- Measurement description: Inhibition of FAAH in Wistar rat cerebral membrane by liquid scintillation counting
- Assay type: cell membranes
What pIC50 was measured for each of the following?
Just the number, please; pIC50 means minus log10 of the concentration in mol/L.

Problem: Name the recorded pIC50 for CCNC(=O)Oc1ccc(C2=NCCS2)cc1 .
Result: 4.82

Problem: Name the recorded pIC50 for CCCCCCNC(=O)Oc1ccc(C2=NCCS2)cc1 .
Result: 8.09

Problem: Name the recorded pIC50 for CCCNC(=O)Oc1ccc(C2=NCCS2)cc1 .
Result: 5.77

Problem: Name the recorded pIC50 for CCCCCCNC(=O)Oc1ccc(C(=O)OC)cc1I .
Result: 7.62

Problem: Name the recorded pIC50 for Cc1ccccc1CNC(=O)Oc1ccc(C2=NCCS2)cc1 .
Result: 7.21

Problem: Name the recorded pIC50 for CCCCNC(=O)Oc1ccc(C2=NCCS2)cc1 .
Result: 6.28

Problem: Name the recorded pIC50 for Cc1ccccc1CNC(=O)Oc1ccc(C2=NCCO2)cc1 .
Result: 7.47

Problem: Name the recorded pIC50 for CCCCCCCCCCCCNC(=O)Oc1ccc(C2=NCCS2)cc1 .
Result: 8.20

Problem: Name the recorded pIC50 for O=C(NCc1ccccc1)Oc1ccc(C2=NCCS2)cc1 .
Result: 6.54

Problem: Name the recorded pIC50 for O=C(NC1CCCC1)Oc1ccc(C2=NCCS2)cc1 .
Result: 6.89

Problem: Name the recorded pIC50 for CCCCCCCCCCCCNC(=O)Oc1ccccc1-c1csnn1 .
Result: 7.30

Problem: Name the recorded pIC50 for CCCCNC(=O)Oc1cccc(-c2csnn2)c1 .
Result: 8.16

Problem: Name the recorded pIC50 for CCCCCCNC(=O)Oc1ccc(-c2csnn2)cc1 .
Result: 7.72
